The reported measurements were obtained from ChEMBL document CHEMBL3856230.

species: Homo sapiens; test: Substrate activity at P-gp (unknown origin) in P-gp enriched membranes assessed as increase in ATPase activity at 50 uM in presence of Mg2-ATP after 40 mins by luciferase reporter gen assay relative to control; assay type: cell membranes
Threshold check on fold change (FC): strictly below 5 is MET; on or above 5 is NOT MET.

# example entries with known answers
input: Identify whether the compound CN(C)C(=S)NN=C(c1ccccn1)c1ccccn1 records fold change (FC) below 5.
output: NOT MET

input: Can you check CN(/N=C(\c1ccccc1)c1ccccn1)C(N)=S next?
output: NOT MET

input: CN(C(=S)NN=C(c1ccccn1)c1ccccn1)C1CCCCC1 , same question.
output: NOT MET

input: Similarly, NC(=S)N/N=C/c1ncccc1N [TRIAPINE] ?
output: MET

Next compound, please.
input: Given the entry CN(C)C(=S)N/N=C(/c1ccccc1)c1ccccn1 , would its reported fold change (FC) be below 5?
output: NOT MET
